I'd appreciate it if you could supply Growth Rate values for the items below.
System: HEK-293T
EXPERIMENT: Incucyte cell viability with HEK293T; note: unitless GR value; below 1 slowed growth and below 0 cell loss
Format: toxicity, cell-based
TEST_SETTINGS: human, 6 h, 10 µM, compound concentration 10 uM, replicate number 1, timepoint 6 hours
Reply with the value as a number alone.

Name the reported Growth Rate value associated with the molecule CCCCC/C=C\C/C=C\C/C=C\C/C=C\CCCC(=O)OC(CO)CO
0.94

Try this molecule too: N=C(N)NCCC[C@H](NC(=O)COCC(c1ccccc1)c1ccccc1)C(=O)O.O=C(O)C(F)(F)F
1

Try this molecule too: COc1ccc2c(c1OCc1ccccc1)C[C@@H](C(=O)O)N(C(=O)C(c1ccccc1)c1ccccc1)C2
0.62

Try this molecule too: Br.Cc1cccc(C2CN(C)CCc3c2cc(O)c(O)c3Cl)c1 (configuration not stated)
0.81

Try this molecule too: Cl.Clc1cccc(Cl)c1NC1=NCCN1 [CLONIDINE HYDROCHLORIDE]
0.49

Try this molecule too: COc1ccc2[nH]c(I)c(CCNC(C)=O)c2c1
0.9

Try this molecule too: CCOc1c2c(c(OCC)c3ncccc13)CN(c1ccc(CS(=O)(=O)NC(=O)Cc3ccccc3OC)cc1C)C2=O
0.48

Try this molecule too: CCCCCCCCCCCCC/C=C/[C@@H](O)[C@@H](N)COP(=O)([O-])OCC[N+](C)(C)C
-0.01

Try this molecule too: CCCCC[C@H](O)/C=C/[C@H]1CCC(=O)[C@@H]1CCCCCCC(=O)O
0.64

Try this molecule too: Cl.Cl.OCCOCCN1CCN(C(c2ccccc2)c2ccc(Cl)cc2)CC1 (configuration not stated) [HYDROXYZINE HYDROCHLORIDE]
0.77

Try this molecule too: O=C(O)Cc1ccccc1Nc1c(Cl)cccc1Cl
0.97

Try this molecule too: Cn1cc(C(=O)OCC2CCN(CCNS(C)(=O)=O)CC2)c2ccccc21
0.81

Try this molecule too: COc1cc(Nc2ncc3c(n2)-c2ccc(Cl)cc2C(c2c(F)cccc2OC)=NC3)ccc1C(=O)O
-0.03

Try this molecule too: CCc1ccccc1C(=O)Nc1n[nH]c2c(C)c(F)c(C3C(C#N)=C(C)N(C)C(C)=C3C#N)cc12
0.43

Try this molecule too: CN(C)CCN(Cc1ccc(-c2ccc(CNCCc3ccccc3)cc2)cc1)C(=O)CCC1CCCC1.Cl.Cl
-0.93

Try this molecule too: CCc1nnc(NS(=O)(=O)c2ccc(NC(=S)NC(=O)/C=C/c3ccc(F)cc3)cc2)s1
0.64

Try this molecule too: COc1ccc2[nH]cc(CCNC(C)=O)c2c1
0.93

###

System: Fibroblast
EXPERIMENT: Incucyte cell viability with human fibroblast; note: unitless GR value; below 1 slowed growth and below 0 cell loss
Format: toxicity, cell-based
TEST_SETTINGS: 24 h, 10 µM, compound concentration 10 uM, replicate number 1, timepoint 24 hours
Cut-off 0.5 on Growth Rate: below means t, at or above means f.

Does N[C@@H]1c2cccnc2[C@H](OC(=O)N2CCC(n3c(=O)[nH]c4ncccc43)CC2)CC[C@H]1c1cccc(F)c1F have Growth Rate strictly under 0.5?
t

Try this compound too: CC(C)n1cnc2c(Nc3cccc(Cl)c3)nc(N[C@H]3CCCC[C@@H]3N)nc21
t

Try this compound too: CCC(=O)NC[C@@H]1C[C@H]1c1cccc2c1CCO2
t

Try this compound too: Cc1ccc(F)cc1C(=O)Nc1ccc(C(=O)N2Cc3cccn3Cc3ccccc32)c(Cl)c1
t

Try this compound too: CCCCCCCCCCCCC/C=C/[C@@H](O)[C@@H](N)COP(=O)(O)O
f

Try this compound too: O=C1NC(=Nc2c(Cl)cccc2Cl)S/C1=C\c1ccc2nccnc2c1
t

Try this compound too: CCCN(CCC)[C@@H]1CCc2ccc3[nH]c(C#N)cc3c2C1.Cl
f

Try this compound too: O=c1ccn([C@@H]2O[C@H](COP(=O)([O-])OP(=O)([O-])OP(=O)([O-])OP(=O)([O-])OC[C@H]3O[C@@H](n4ccc(=O)[nH]c4=O)[C@H](O)[C@@H]3O)[C@@H](O)[C@H]2O)c(=O)[nH]1.[Na+].[Na+].[Na+].[Na+] [DIQUAFOSOL TETRASODIUM]
f

Try this compound too: COc1cc(Br)c(S(=O)(=O)Nc2ccc(C(F)(F)F)c(O[C@@H]3CCN(C)C3)c2)cc1OC
t

Try this compound too: C[C@]12N[C@H](Cc3ccccc31)c1ccccc12
t

Try this compound too: Cc1c(Cc2ccc3ccccc3n2)c2cc(F)ccc2n1CC(=O)O
f

Try this compound too: COC1(C[S@@+]([O-])c2ccccc2)CCN(CCc2c[nH]c3ccc(F)cc23)CC1
f

Try this compound too: Cc1ccc(-c2ccc(F)cc2COc2ccc(CCC(=O)O)cc2)cc1
t

Try this compound too: CN(c1ncccc1CNc1ccnc(-c2nc3c(F)c(Cl)ccc3[nH]2)n1)S(C)(=O)=O
t

Try this compound too: CC(C)n1cc(-c2ccc(N3CCN(C)CC3)c(NC(=O)c3ccc(-c4ccncc4)o3)c2)cn1
t

Try this compound too: CN(C)c1ccnc2sc3c(=O)n(N4CCCCCC4)cnc3c12
t

Try this compound too: COc1ccc(S(=O)(=O)N2C(=O)[C@@](c3ccccc3OC)(N3C[C@H](O)C[C@H]3C(=O)N(C)C)c3cc(Cl)ccc32)c(OC)c1
t

Try this compound too: CC[C@H](Nc1ncnc2[nH]cnc12)c1nc2cccc(F)c2c(=O)n1-c1ccccc1
t

Try this compound too: O=C(Nc1cc(-c2ccccc2)nn1-c1ccccc1F)c1ccc([N+](=O)[O-])cc1
t

Try this compound too: CN1CCN(c2ccc(Nc3c4ccccc4nc4ccccc34)cc2)CC1.Cl.Cl.O
t

Try this compound too: N[C@@]1(C(=O)O)CC[C@H]2[C@H](C(=O)O)[C@H]21
f

Try this compound too: Cl.Clc1cccc(Cl)c1NC1=NCCN1 [CLONIDINE HYDROCHLORIDE]
f
